Each recorded value in this set is attributed to patent US20190021380A1.

# Assayed system: T1R1/T1R3 receptor (Felis catus, UniProt E3UMS2)
# Measurement description: cell-based
# Assay type: cell-based
# Condition label: EC50 (mM) +IMP (0.2 mM), in the presence of 0.2 mM IMP
Property label: EC50 (mM)
Answer format: numeric, mM implied, no suffix.

// lookup EC50 | system=T1R1/T1R3 receptor (Felis catus, UniProt E3UMS2) | key= CCCC(C)NC(=O)/C=C/c1ccc(OC)c(OC)c1 (centres unmarked)
2.2

* * *

# Assayed system: T1R1/T1R3 receptor (Felis catus)
# Type: cell-based
# Condition label: threshold in the presence of 0.2 mM IMP; CNBD = Could not be determined
# Description: HEK293 cells that stably express T1R3 and inducibly express T1R1 were exposed to transmembrane compounds alone or in combination with one or more amino acids and/or one or more nucleotides to activate the umami receptor. Activation of the T1R1/T1R3 receptor was detected by a change in intracellular calcium levels using a calcium sensitive fluorescent dye. Cells that express T1R3 but not T1R1 were used as a control. A FLIPR® Tetra or a FlexStation® 3 was used for data capture. […]
Property label: Thres +IMP (0.2 mM)
Answer format: numeric, mM implied, no suffix.

Worked set:
So what does the record say about Thres +IMP (0.2 mM) for `O=C(NCCc1ccccc1)c1ccc2c(c1)OCO2` ?
0.01

So what does the record say about Thres +IMP (0.2 mM) for Nc1ccccc1C(=O)NCCc1ccccc1 [2-amino-N-phenethylbenzamide] ?
0.01

So what does the record say about Thres +IMP (0.2 mM) for O=C(NCCCCNC(=O)c1cccnc1)c1cccnc1 [N,N′-(butane-1,4-diyl)dinicotinamide] ?
0.1

So what does the record say about Thres +IMP (0.2 mM) for CC(C)CC(NC(=O)c1ccccc1)C(N)=O (racemic) ?
0.1

So what does the record say about Thres +IMP (0.2 mM) for O=C(O)C1CCCCC1C(=O)Nc1cc(Cl)cc(Cl)c1 (stereo not shown) ?
0.03

So what does the record say about Thres +IMP (0.2 mM) for O=C(NCCc1ccccc1)c1ccccc1 [N-phenethylbenzamide] ?
0.01

So what does the record say about Thres +IMP (0.2 mM) for `O=C1CC(=O)N(Cc2ccccc2)C(=O)N1Cc1ccccc1` ?
0.1

So what does the record say about Thres +IMP (0.2 mM) for `O=P(O)(O)OP(=O)(O)OP(=O)(O)OC[C@H]1O[C@@H](n2cnc3c(Cl)ncnc32)[C@H](O)[C@@H]1O` ?
0.003

New cases:
So what does the record say about Thres +IMP (0.2 mM) for `N[C@@H](Cc1c[nH]cn1)C(=O)O` ?
10.0
